FYI, the data here is from PubChem BioAssay (NCI).

# Tested on: OVCAR-5 ovarian
# TEST DESCRIPTION: NCI tumour cell line growth inhibition, 48 h
Reported values of TGI for individual entries

MOLECULE	REPORTED
CCN(CC)CCOc1ccc2c(c1)C(=O)c1cc(OCCN(CC)CC)ccc1-2	69.7 µM
CC(=O)Oc1cc(C)c(OC(C)=O)c2c1[C@H]1CC[C@]3(C)[C@@H](OC(C)=O)CC[C@H]3[C@@H]1CC2	36 µM
NCCP(=O)(O)O	> 100 µM
CC(C)(CC#N)c1cc(CC(C)(C)c2cc(CC(C)(C)c3cc(C(C)(C)C4(C)OCCO4)no3)no2)no1	> 100 µM
COC(CN(C=O)[C@@H](c1ccc(Cl)cc1)c1cc2ccccc2o1)OC	29.8 µM

### Prompt Annotate the molecule CC1SC(c2c(Cl)cccc2Cl)N(NC(=O)C(O)c2ccccc2)C1=O (stereo not given) with its measured TGI.
### Response > 100 µM

====

# Test system: MCF7 breast
# TEST DESCRIPTION: NCI tumour cell line growth inhibition, 48 h
METRIC NAME: TGI (µM)
Write the value in µM as a bare number.

MOLECULE	UNITS LABEL	TGI
C=C1CC2(CCCC3(CC(=C)C(=O)O3)C2(C)C)OC1=O (centres undefined)	µM	63.7

Turning now to a further molecule:
### Prompt Annotate the molecule C/C1=C\C/C=C(\C)[C@H]2CC(CC/C(C)=C/CC1)[C@](C)(C=O)O2 with its measured TGI.
### Response 87.8

====

Reported values of TGI for individual entries
# System: KM12 colon
# TEST DESCRIPTION: NCI tumour cell line growth inhibition, 48 h

COMPOUND	TEST TARGET	TGI
COC(=O)C[C@H](COCc1ccccc1)NC(=O)C[C@H](COCc1ccccc1)NC(=O)OC(C)(C)C	KM12 colon	> 100 µM
CCOC(=O)C1=COC(C)(c2ccccc2)CC1=O (stereo unspecified)	KM12 colon	> 100 µM
O=C1CCCCC(=O)Nc2ccccc2N1	KM12 colon	> 100 µM

### Prompt Annotate the compound O=C1/C(=C/c2ccccc2)CCc2ccccc21 with its measured TGI.
### Response 33.8 µM

### Prompt Annotate the compound S=C1N=C(Cl)/C(=C\c2ccco2)N1 with its measured TGI.
### Response > 100 µM

### Prompt Annotate the compound COc1ccc(C(=O)COc2cccc(/C=C3\CSc4ccc(Cl)cc4C3=O)c2)cc1 with its measured TGI.
### Response 5.57 µM

### Prompt Annotate the compound Cc1cccc(C)c1NC(=O)CCC(=O)NC(N)=S with its measured TGI.
### Response > 100 µM

### Prompt Annotate the compound COc1ccc(N2C(=O)[C@@H]3[C@H](C2=O)c2[nH]c4ccccc4c2C2CCC(C(C)(C)C)C[C@@H]23)cc1 (stereo partly specified) with its measured TGI.
### Response > 100 µM

### Prompt Annotate the compound C(=C\c1nccc2c1[nH]c1ccccc12)/c1ccccc1 with its measured TGI.
### Response 11.3 µM

### Prompt Annotate the compound CC(=O)N/N=C1/CC[C@@]2(C)C(=CC[C@H]3C4CCC(C(C)CCCC(C)C)[C@@]4(C)CCC32)C1(C)C (stereo partly specified) with its measured TGI.
### Response > 100 µM

### Prompt Annotate the compound O=C(NNS(=O)(=O)c1ccc(F)cc1)c1cccnc1Nc1ccc(Cl)cc1Cl with its measured TGI.
### Response 48.5 µM
